src = ChEMBL document CHEMBL1157539

- System: Plasmodium falciparum
- assay: GSK_TCMDC: Inhibition of Plasmodium falciparum 3D7 in whole red blood cells, using parasite LDH activity as an index of growth. Test compounds present at 2uM
- Type: functional
parameter: Inhibition (%)
Please state the figure in %; there is no need to write the unit.

Write down Inhibition measured for item Cc1nc(C)c(-c2ccc(S(=O)(=O)c3ccc(Cl)cc3)cc2)c(O)c1Cl 98

Note Inhibition for the molecule shown: CN1CCN(CC(=O)Nc2cccc(-c3cccc(-c4nc5cc(F)ccc5[nH]4)c3)c2)CC1 100

Return the recorded Inhibition value; entry: CCN(CC)CCNc1nccc(N(C)c2ccc(NC(=O)Nc3cc(C(F)(F)F)ccc3F)cc2)n1.O=C(O)C(F)(F)F 97

Note Inhibition for the molecule shown: Cc1nc(N)nc(N)c1-c1cccc(Cl)c1 88

Specify Inhibition for CNc1ccc(CNCc2cccc(-c3ccc(-c4nc5cc(C(F)(F)F)ccc5[nH]4)cc3)c2)cc1.O=C(O)C(F)(F)F and stop. 100

Write down Inhibition measured for item CCNc1cc(C(=O)N[C@@H](Cc2ccccc2)[C@H](O)CN[C@@H]2CCc3ccccc32)cc(N2CCCC2=O)c1 92

Provide Inhibition value for the following molecule: COc1ccc(CNC2CCN(C)CC2)cc1-c1ccc(S(=O)(=O)NCc2ccccc2)c(F)c1.O=C(O)C(F)(F)F 100

Identify measured Inhibition corresponding to O=C(NC1CC1)c1cnc(N2CCC(OCc3ccccc3)CC2)c(Cl)c1.O=C(O)C(F)(F)F 90

Report Inhibition for CC(C)(C)C1CCc2onc(C(=O)Nc3cc(Cl)ccc3O)c2C1 (stereo unspecified) 98

Using the record for COC(=O)c1cccc(CNCc2ccc(-c3ccc(-c4nc5cc(F)ccc5[nH]4)cc3)cc2)c1.O=C(O)C(F)(F)F , state its measured Inhibition. 100

Fill in Inhibition for record COc1cc(C(F)(F)F)c2cc(CNCCCNc3nc4ccccc4[nH]3)[nH]c2c1 100

Supply measured Inhibition of Cc1cc(NC(=O)NCCN2CCC(NS(=O)(=O)c3cccc(Br)c3)C2)c2ccccc2n1.O=C(O)C(F)(F)F (stereo unspecified) in your reply. 99

Indicate its recorded Inhibition; the molecule in question is C=CCn1c(Sc2ccc(C#N)c([N+](=O)[O-])c2)nnc1-c1ccc(OC)cc1 96

Assign Inhibition to the following record: Cl.N#Cc1ccc2c(c1)CCN(CCC1CCC(NC(=O)Nc3ccnc4ccccc34)CC1)C2 (stereo unspecified) 100

State, in one line, measured Inhibition of O=C(O)C(F)(F)F.O=c1[nH]ccc2nc(N[C@@H]3CCNC3)nc(Nc3cccc(S(=O)(=O)N4CCOCC4)c3)c12 90

Give the measured Inhibition for CC(C)NCc1ccc(-c2ccc(-c3nc4cc(F)ccc4[nH]3)cc2)cc1.O=C(O)C(F)(F)F 100

Retrieve Inhibition measured for C[C@@H]([C@@H](CCCc1ccc(Cl)cc1)C(=O)N[C@H](C(=O)Nc1cccnc1)C(C)(C)C)N(O)C=O and print it. 100

Please indicate Inhibition recorded for Cc1cccc2nc(-c3ccc(-c4cccc(CNCCN5CCNCC5)c4)cc3)[nH]c12.O=C(O)C(F)(F)F 85

Output measured Inhibition for this item: O=C(O)c1ccc(NC(=O)C2CC(=O)N(Cc3ccc(Cl)cc3)C(=Nc3ccc(Cl)cc3)S2)cc1 (stereo unspecified) 99

Indicate the recorded Inhibition value for this molecule: CCN(CC)c1ccc2nc(N)nc(N)c2c1Cl.Cl 92

Answer with reported Inhibition of FC(F)(F)c1cccc(CNCC2CCN(CC3CCCCC3)CC2)c1.O=C(O)C(F)(F)F 100

Kindly indicate its recorded Inhibition. Item: Cl.Fc1cc(Cl)ccc1Nc1ccnc(Nc2ccc3cn[nH]c3c2)n1 97

Give the value of Inhibition reported for the following: O=C(CN1CCN(S(=O)(=O)C=Cc2ccccc2)CC1)Nc1cc(C(F)(F)F)ccc1Cl 96

Identify Inhibition associated with the molecule CC(Oc1cccc(Cl)c1)C(=O)N1CCc2ccccc21 (stereo unspecified) 94

Note Inhibition for the molecule shown: CC=CC1CCNC(C(O)c2ccnc3ccc(OC)cc23)C1 (stereo unspecified) 91

Give the measured Inhibition for CN(C)S(=O)(=O)c1ccc(Nc2nc(NCCC3C=NC=N3)nc3cc[nH]c(=O)c23)cc1 (stereo unspecified) 96

Give me measured Inhibition, please, for this molecule: CCOC(=O)c1ccc(-c2c(C(F)(F)F)noc2-c2cc(CC)c(OC)cc2O)o1 100

Recall and state the measured Inhibition for CCCCCN1CCC(NS(=O)(=O)c2cccc(C(=O)Nc3ccc(Cl)cc3)c2)CC1.O=C(O)C(F)(F)F . 88

Let me know recorded Inhibition for Cc1cc(C(=O)CSc2nc3ccccc3n2-c2ccccc2)c(C)n1C1CCS(=O)(=O)C1 (stereo unspecified) , thanks. 92

Using the record for CS(=O)(=O)N1CC2(CCN(CCC(NC(=O)Nc3ccccc3)c3ccc(Cl)c(Cl)c3)CC2)c2ccccc21 (stereo unspecified) , state its measured Inhibition. 99

Give reported Inhibition value for COc1ccccc1NC(=O)CSc1nc2cccnc2n1-c1ccccc1OC 94

Please indicate Inhibition recorded for COc1cccc(NC(=O)Nc2ccc(-c3oc(C(=O)NCC(c4ccccc4)N(C)C)cc3-c3ccncc3)cc2)c1.O=C(O)C(F)(F)F (stereo unspecified) 100

Assign Inhibition to the following record: CCC(=O)OC(CCN(CC)CC)(c1ccccc1)c1ccccc1 98

Quick one: give measured Inhibition for CC(C)CNCc1ccc(-c2cccc(CNc3ccc4ncccc4c3)c2)cc1.O=C(O)C(F)(F)F 96

State, in one line, measured Inhibition of Cn1cncc1-c1ccc2ncnc(Nc3ccc(OCc4ccccc4)cc3)c2c1 100

Return Inhibition for the following molecule: CCN(CC)CCN(Cc1ccc(-c2ccc(C(F)(F)F)cc2)cc1)C(=O)Cn1c(CCc2cccc(F)c2F)cc(=O)cc1-c1ccccc1 94
